The reported numbers originate from ChEMBL document CHEMBL1150449.

target: Cholecystokinin receptor type A (Homo sapiens, UniProt P32238); test: Tested for the 50% displacement of [125I]CCK-8 from membrane preparation isolated from CHO-K1 cells stably transfected with the cDNA of human Cholecystokinin type A receptor
Sequence (P32238 whole entry): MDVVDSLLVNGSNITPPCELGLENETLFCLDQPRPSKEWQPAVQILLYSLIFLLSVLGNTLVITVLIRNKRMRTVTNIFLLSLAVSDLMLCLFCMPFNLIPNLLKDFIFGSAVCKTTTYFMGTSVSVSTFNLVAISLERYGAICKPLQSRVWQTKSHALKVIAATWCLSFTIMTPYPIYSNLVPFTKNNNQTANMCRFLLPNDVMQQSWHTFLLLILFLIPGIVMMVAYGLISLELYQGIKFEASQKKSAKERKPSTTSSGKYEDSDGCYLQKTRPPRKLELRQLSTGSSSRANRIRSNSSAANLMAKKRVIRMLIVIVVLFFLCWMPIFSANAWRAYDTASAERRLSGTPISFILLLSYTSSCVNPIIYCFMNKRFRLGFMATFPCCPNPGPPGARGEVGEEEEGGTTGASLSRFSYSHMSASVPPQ
pIC50: −log10 of the molar value.
QUANTITY KIND: pIC50

(I) COc1ccc(N(C(=O)CN(C(=O)[C@@H](CCC(=O)O)NC(=O)Nc2ccccc2)c2ccccc2)C(C)C)cc1
(II) CC(C)N(C(=O)CN(C(=O)[C@@H](CCC(=O)O)NC(=O)Nc1ccccc1)c1ccccc1)c1ccccc1
(III) CC(C)N(C(=O)CN(C(=O)CNC(=O)Nc1ccccc1)c1ccccc1)c1ccccc1
Asked: // ranking: key=pIC50, reverse=True Form entry: ranked labels (order as requested).
Given back: I, II, III

###

tested on: Mus musculus; assay: Tested in vivo for the relative efficacy (relative to CCK-8 (1 nmol/kg)) for mouse gallbladder emptying after ip administration (0.1 umol/kg); type: functional
Overview of recorded Relative efficacy for various molecules
Keep the answer to the number alone.

COc1ccc(N(C(=O)CN(C(=O)[C@@H](CCC(=O)O)NC(=O)Nc2ccccc2)c2ccccc2)C(C)C)cc1 0.8
CC(C)N(C(=O)CN(C(=O)[C@@H](CCC(=O)O)NC(=O)Nc1ccccc1)c1ccccc1)c1ccccc1 0.6

Please look at the following molecule next.
Please fill in: Relative efficacy reported for `CCCCCN(CC(=O)N(c1ccccc1)C(C)C)C(=O)[C@@H](CCC(=O)O)NC(=O)Nc1ccccc1` = 0.3

###

biological target: Cholecystokinin receptor type A (Cavia porcellus); test: Concentration of compound that induced 50% of the maximal contraction in guinea pig gallbladder tissue when tested in vitro
QUANTITY KIND: EC50 (nM)

CC(C)N(C(=O)CN(C(=O)[C@@H](CCC(=O)O)NC(=O)Nc1ccccc1)c1ccccc1)c1ccccc1 210

(1) COc1ccc(N(C(=O)CN(C(=O)[C@@H](CCC(=O)O)NC(=O)Nc2ccccc2)c2ccccc2)C(C)C)cc1
(2) CC(C)N(C(=O)CN(C(=O)CNC(=O)Nc1ccccc1)c1ccccc1)c1ccccc1
(3) COc1ccc(N(C(=O)CN(C(=O)[C@H](CCC(=O)O)NC(=O)Nc2ccccc2)c2ccccc2)C(C)C)cc1
Asked: List items by EC50 in falling order. Order the labels as requested and give them as your answer.
Given back: 3, 2, 1
(3: 5600 nM, 2: 300 nM, 1: 110 nM)
